- assay-target: T1, soluble human CD73 (Homo sapiens, UniProt P21589)
- T1 construct: The ectodomain of CD73 (aa 27-549) was expressed as a recombinant protein with a C-terminal His6× tag; His6 (C); made in house; host or cells: transiently transfected HEK cells
- T1 sequence (P21589 27-549): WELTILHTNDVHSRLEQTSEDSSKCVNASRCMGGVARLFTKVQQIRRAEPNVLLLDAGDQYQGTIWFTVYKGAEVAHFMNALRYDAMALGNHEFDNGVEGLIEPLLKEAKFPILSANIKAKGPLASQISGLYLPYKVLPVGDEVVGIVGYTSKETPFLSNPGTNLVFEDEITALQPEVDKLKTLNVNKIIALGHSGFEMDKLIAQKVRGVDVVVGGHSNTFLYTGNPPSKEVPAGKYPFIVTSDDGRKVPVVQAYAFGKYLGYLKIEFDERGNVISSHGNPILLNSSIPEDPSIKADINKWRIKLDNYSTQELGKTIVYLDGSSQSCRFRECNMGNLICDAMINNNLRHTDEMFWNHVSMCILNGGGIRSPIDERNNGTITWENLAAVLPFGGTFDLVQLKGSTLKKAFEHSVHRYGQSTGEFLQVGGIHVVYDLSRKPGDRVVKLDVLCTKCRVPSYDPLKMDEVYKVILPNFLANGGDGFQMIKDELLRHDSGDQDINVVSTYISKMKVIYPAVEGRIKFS
- experiment: Off-rates of soluble CD73 from immobilized Nb-rbIgG hcAb on Octet BLI
- Format: binding
- test-parameters: soluble human CD73 ectodomain 200 ng/μl as analyte; Nb-rbIgG hcAb immobilized on protein A biosensor
Task for the reader: assign each of the following molecules its reported Kdis.
Reply with just the number (in s⁻¹).

## Task If you can, please state the reported Kdis value of SB124: CD73-specific alpaca VHH clone, family 1, SEQ ID NO:65; tested as rabbit IgG hcAb (antibody, left off: a dimerising Fc or GST, tested as rabbit IgG hcAb) heavy: QVQLQESGGGLVQPGGSLRLSCAASGFTLDYYTIGWFRQAPGKEREGVSCVSSSGDRTDYLESVKGRLTISRDNAKNTVYLQMNSLKPEDTGVYYCAAQKYYYCSGKVEVYDYWGQGTQVTVSS .
## Result 0.0011

## Task If you can, please state the reported Kdis value of SB121: CD73-specific alpaca VHH clone, family 5, SEQ ID NO:82; tested as rabbit or human IgG hcAb (antibody, left off: a dimerising Fc or GST, tested as rabbit or human IgG hcAb) heavy: QVQLQESGGGLVQAGGSLRLSCAASGSIGSIIAMGWYRQGPGKQRELVARMFTDDGSTNYDDSVKGRFTISRDSAGTTVYLQMNSLKPEDTAVYYCNAQRRWNAYWGPGTQVTVSS .
## Result 0.022

## Task If you can, please state the reported Kdis value of SB123: CD73-specific alpaca VHH clone, family 1, SEQ ID NO:64; tested as rabbit IgG hcAb (antibody, left off: a dimerising Fc or GST, tested as rabbit IgG hcAb) heavy: DVQLQESGGGLVQPGGSLTLSCAASGFTLDYLSIGWFRQVPGKEREGVSCINSSGGSTNYADSVKGRLTISRDNAKNTVYLQINSLKPEDTAVYYCAAHKYYYCSNKVAVFDYWGQGTQVTVSS .
## Result 4.3e-05

## Task If you can, please state the reported Kdis value of SB98: CD73-specific alpaca VHH clone, family 1, SEQ ID NO:62; tested as rabbit IgG hcAb (antibody, left off: a dimerising Fc or GST, tested as rabbit IgG hcAb) heavy: QVKLQESGGGLVQPGGSLRLSCAASGFTLDYYTIGWFRQAPGKEREGVSCISSSGGITNYADSVKGRLTISRDNAKNTVYLQMNSLKPEDTAVYYCAAQKYYYCSGKAEVYDYWGQGTQVTVSS .
## Result 0.0018

## Task If you can, please state the reported Kdis value of SB116: CD73-specific alpaca VHH clone, family 3, SEQ ID NO:81; tested as rabbit or human IgG hcAb (antibody, left off: a dimerising Fc or GST, tested as rabbit or human IgG hcAb) heavy: QVKLQESGGGRVQTGGSLRLSCAASGISFSITTMYWYRQAPGEQRQLVALITDRGNTYYVDSVKGRFTISRDDSKNTVYLQMNDLKPEDTAVYFCNSIPGNDWGQGTQVTVSS .
## Result 0.00017

Hello, the source for this data is patent US20240417484A1, in case you need it.
